Tested on: NCI-H2087
assay info: relative viability (nuclei count vs DMSO), 5 days (fraction); higher = more cells survive
assay setup: first compound 1 µM
property measured: relative viability
Lab note: record just the number, no unit beside it.

| molecule | relative viability |
| --- | --- |
| CCN(CC)CCCCNc1ncc2cc(-c3cc(OC)cc(OC)c3)c(NC(=O)NC(C)(C)C)nc2n1 + Nc1nc2[nH]cc(CCc3ccc(C(=O)N[C@@H](CCC(=O)O)C(=O)O)cc3)c2c(=O)[nH]1 [Pemetrexed] (partner 0.2 µM) | 0.727 |

Query CCN(CC)CCCCNc1ncc2cc(-c3cc(OC)cc(OC)c3)c(NC(=O)NC(C)(C)C)nc2n1 + NC(=O)Nc1cc(-c2cccc(F)c2)sc1C(=O)N[C@H]1CCCNC1 [AZD7762] (partner 0.2 µM) on NCI-H2087; relative viability returned: 1.18

Record CCN(CC)CCCCNc1ncc2cc(-c3cc(OC)cc(OC)c3)c(NC(=O)NC(C)(C)C)nc2n1 + Nc1ncn([C@H]2C[C@H](O)[C@@H](CO)O2)c(=O)n1 [Decitabine] (partner 2 µM) ; system NCI-H2087; relative viability = 0.317
